Measurement Description: molar heat capacity at constant pressure
Settings: 338.15 K; 101.33 kPa; Crystal; Small sample (50 mg) DSC
Parameter: molar heat capacity at constant pressure (J/K/mol)
Give the value in J/K/mol but do not write J/K/mol after it.

Check out these entries, answers already filled in.
Short answer for OC[C@H]1O[C@@H]2O[C@H]3[C@H](O)[C@@H](O)[C@@H](O[C@H]4[C@H](O)[C@@H](O)[C@@H](O[C@H]5[C@H](O)[C@@H](O)[C@@H](O[C@H]6[C@H](O)[C@@H](O)[C@@H](O[C@H]7[C@H](O)[C@@H](O)[C@@H](O[C@H]8[C@H](O)[C@@H](O)[C@@H](O[C@H]1[C@H](O)[C@H]2O)O[C@@H]8CO)O[C@@H]7CO)O[C@@H]6CO)O[C@@H]5CO)O[C@@H]4CO)O[C@@H]3CO : molar heat capacity at constant pressure was 1557.1

Short answer for O.OC[C@H]1O[C@@H](O[C@H]2[C@H](O)[C@@H](O)[C@@H](O)O[C@@H]2CO)[C@H](O)[C@@H](O)[C@H]1O [α-D-lactose hydrate] : molar heat capacity at constant pressure was 477.1

Short answer for OC[C@H]1O[C@@H](O[C@H]2[C@H](O)[C@@H](O)[C@H](O)O[C@@H]2CO)[C@H](O)[C@@H](O)[C@@H]1O : molar heat capacity at constant pressure was 481.1

Short answer for O=C[C@H](O)[C@@H](O)[C@H](O[C@H]1O[C@H](CO)[C@@H](O[C@H]2O[C@H](CO)[C@@H](O)[C@H](O)[C@H]2O)[C@H](O)[C@H]1O)[C@H](O)CO : molar heat capacity at constant pressure was 736.3

Short answer for OC[C@H]1O[C@H](O)[C@H](O)[C@@H](O)[C@@H]1O : molar heat capacity at constant pressure was 250.5

Short answer for CO[C@H]1O[C@H](CO)[C@@H](O)[C@H](O)[C@H]1O [methyl-α-D-glucopyranoside] : molar heat capacity at constant pressure was 293.4

Continuing:
Short answer for CC(=O)N[C@@H](C=O)[C@@H](O)[C@H](O)[C@H](O)CO : molar heat capacity at constant pressure was 303.8

Short answer for OC[C@H]1O[C@@H]2O[C@H]3[C@H](O)[C@@H](O)[C@@H](O[C@H]4[C@H](O)[C@@H](O)[C@@H](O[C@H]5[C@H](O)[C@@H](O)[C@@H](O[C@H]6[C@H](O)[C@@H](O)[C@@H](O[C@H]7[C@H](O)[C@@H](O)[C@@H](O[C@H]1[C@H](O)[C@H]2O)O[C@@H]7CO)O[C@@H]6CO)O[C@@H]5CO)O[C@@H]4CO)O[C@@H]3CO : molar heat capacity at constant pressure was 1335.3

Short answer for O=C(CO)[C@@H](O)[C@H](O)[C@H](O)CO : molar heat capacity at constant pressure was 259.6

Short answer for O=C[C@@H](O)[C@@H](O)[C@H](O)[C@H](O)CO : molar heat capacity at constant pressure was 245.2

Short answer for OC[C@H]1O[C@@](CO)(O[C@H]2O[C@H](CO)[C@@H](O)[C@H](O)[C@H]2O)[C@@H](O)[C@@H]1O : molar heat capacity at constant pressure was 490.3

Short answer for O=C[C@H](O)[C@@H](O)[C@@H](O)[C@H](O)CO [(+)-galactose] : molar heat capacity at constant pressure was 247

Short answer for OC[C@H]1OC(O)C[C@@H](O)[C@@H]1O (stereo partly drawn) : molar heat capacity at constant pressure was 224.9

----------
Measurement Description: molar heat capacity at constant pressure
Settings: 353.15 K; 101.33 kPa; Crystal; Small sample (50 mg) DSC
Lab note: compare molar heat capacity at constant pressure against 500 J/K/mol. Equal or greater, write Y. Smaller, write N.

Reference set, count: 4
Identify whether the reported molar heat capacity at constant pressure of the following compound is 500 J/K/mol or greater: OC[C@H]1O[C@@H]2O[C@H]3[C@H](O)[C@@H](O)[C@@H](O[C@H]4[C@H](O)[C@@H](O)[C@@H](O[C@H]5[C@H](O)[C@@H](O)[C@@H](O[C@H]6[C@H](O)[C@@H](O)[C@@H](O[C@H]7[C@H](O)[C@@H](O)[C@@H](O[C@H]1[C@H](O)[C@H]2O)O[C@@H]7CO)O[C@@H]6CO)O[C@@H]5CO)O[C@@H]4CO)O[C@@H]3CO [α-cyclodextrin] Y

Identify whether the reported molar heat capacity at constant pressure of the following compound is 500 J/K/mol or greater: OC[C@H]1O[C@H](O)[C@H](O)[C@@H](O)[C@@H]1O [α-D-glucose] N

Identify whether the reported molar heat capacity at constant pressure of the following compound is 500 J/K/mol or greater: OC[C@H]1OC(O)C[C@@H](O)[C@@H]1O (stereo partly drawn) [2-deoxy-D-glucose] N

Identify whether the reported molar heat capacity at constant pressure of the following compound is 500 J/K/mol or greater: OC[C@H]1O[C@@H]2O[C@H]3[C@H](O)[C@@H](O)[C@@H](O[C@H]4[C@H](O)[C@@H](O)[C@@H](O[C@H]5[C@H](O)[C@@H](O)[C@@H](O[C@H]6[C@H](O)[C@@H](O)[C@@H](O[C@H]7[C@H](O)[C@@H](O)[C@@H](O[C@H]8[C@H](O)[C@@H](O)[C@@H](O[C@H]1[C@H](O)[C@H]2O)O[C@@H]8CO)O[C@@H]7CO)O[C@@H]6CO)O[C@@H]5CO)O[C@@H]4CO)O[C@@H]3CO [β-cyclodextrin] Y

Continuing:
Identify whether the reported molar heat capacity at constant pressure of the following compound is 500 J/K/mol or greater: O=C[C@H](O)[C@@H](O)[C@H](O[C@H]1O[C@H](CO)[C@@H](O[C@H]2O[C@H](CO)[C@@H](O)[C@H](O)[C@H]2O)[C@H](O)[C@H]1O)[C@H](O)CO [maltotriose] Y

Identify whether the reported molar heat capacity at constant pressure of the following compound is 500 J/K/mol or greater: OC[C@H]1O[C@@H](O[C@H]2[C@H](O)[C@@H](O)[C@H](O)O[C@@H]2CO)[C@H](O)[C@@H](O)[C@@H]1O [D-cellobiose] Y

Identify whether the reported molar heat capacity at constant pressure of the following compound is 500 J/K/mol or greater: O=C[C@H](O)[C@@H](O)[C@@H](O)[C@H](O)CO [(+)-galactose] N

Identify whether the reported molar heat capacity at constant pressure of the following compound is 500 J/K/mol or greater: O=C[C@@H](O)[C@@H](O)[C@H](O)[C@H](O)CO [D-mannose] N

Identify whether the reported molar heat capacity at constant pressure of the following compound is 500 J/K/mol or greater: O=C(CO)[C@@H](O)[C@H](O)[C@H](O)CO [D-fructose] N

Identify whether the reported molar heat capacity at constant pressure of the following compound is 500 J/K/mol or greater: CC(=O)N[C@@H](C=O)[C@@H](O)[C@H](O)[C@H](O)CO [N-acetyl-D-glucosamine] N

Identify whether the reported molar heat capacity at constant pressure of the following compound is 500 J/K/mol or greater: CO[C@H]1O[C@H](CO)[C@@H](O)[C@H](O)[C@H]1O [methyl-α-D-glucopyranoside] N

----------
molar heat capacity at constant pressure overview
Measurement Description: molar heat capacity at constant pressure
Settings: 343.15 K; 101.33 kPa; Crystal; Small sample (50 mg) DSC
Give the value in J/K/mol but do not write J/K/mol after it.

Short answer for O.OC[C@H]1O[C@@H](O[C@H]2[C@H](O)[C@@H](O)[C@@H](O)O[C@@H]2CO)[C@H](O)[C@@H](O)[C@H]1O [α-D-lactose hydrate] : molar heat capacity at constant pressure was 488.2

Continuing:
Short answer for OC[C@H]1O[C@H](O)[C@H](O)[C@@H](O)[C@@H]1O [α-D-glucose] : molar heat capacity at constant pressure was 255.2

Short answer for OC[C@H]1OC(O)C[C@@H](O)[C@@H]1O (stereo partly drawn) [2-deoxy-D-glucose] : molar heat capacity at constant pressure was 226.4

----------
Measurement Description: molar heat capacity at constant pressure
Settings: 328.15 K; 101.33 kPa; Crystal; Small sample (50 mg) DSC
Parameter: molar heat capacity at constant pressure (J/K/mol)
Give the value in J/K/mol but do not write J/K/mol after it.

Short answer for CO[C@H]1O[C@H](CO)[C@@H](O)[C@H](O)[C@H]1O [methyl-α-D-glucopyranoside] : molar heat capacity at constant pressure was 274.2

Continuing:
Short answer for O=C[C@@H](O)[C@@H](O)[C@H](O)[C@H](O)CO : molar heat capacity at constant pressure was 236.5

Short answer for O.OC[C@H]1O[C@@H](O[C@H]2[C@H](O)[C@@H](O)[C@@H](O)O[C@@H]2CO)[C@H](O)[C@@H](O)[C@H]1O [α-D-lactose hydrate] : molar heat capacity at constant pressure was 464.5

Short answer for O=C[C@H](O)[C@@H](O)[C@H](O[C@H]1O[C@H](CO)[C@@H](O[C@H]2O[C@H](CO)[C@@H](O)[C@H](O)[C@H]2O)[C@H](O)[C@H]1O)[C@H](O)CO : molar heat capacity at constant pressure was 707.4

Short answer for O=C[C@H](O)[C@@H](O)[C@@H](O)[C@H](O)CO [(+)-galactose] : molar heat capacity at constant pressure was 236.8

Short answer for OC[C@H]1O[C@@](CO)(O[C@H]2O[C@H](CO)[C@@H](O)[C@H](O)[C@H]2O)[C@@H](O)[C@@H]1O : molar heat capacity at constant pressure was 472.6

Short answer for OC[C@H]1O[C@H](O)[C@H](O)[C@@H](O)[C@@H]1O : molar heat capacity at constant pressure was 242.1
